- Target under test: HSD17B13 enzyme (Homo sapiens, UniProt Q7Z5P4)
- Construct: His; made in house; host or cells: E. coli
- Sequence (Q7Z5P4 20-300, species assumed): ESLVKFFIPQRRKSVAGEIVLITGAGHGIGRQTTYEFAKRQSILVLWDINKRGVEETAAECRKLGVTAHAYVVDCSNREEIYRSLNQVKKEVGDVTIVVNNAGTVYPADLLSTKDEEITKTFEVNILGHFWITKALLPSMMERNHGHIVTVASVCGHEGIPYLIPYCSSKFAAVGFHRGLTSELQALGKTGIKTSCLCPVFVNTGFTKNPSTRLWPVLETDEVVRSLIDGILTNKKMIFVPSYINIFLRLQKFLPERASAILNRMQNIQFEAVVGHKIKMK
- Assay method text: NADH detection assay (fluorescence based LTB3 assay) for HSD17B13 activity
- Assay type: biochemical
- Condition description: substrate 25 μM LTB3, 3 mM NAD+, 125 nM HSD17B13 enzyme, 1 hour at 26.5° C.
Record form. Attribute: IC50. Fill in for each entry.

Req: Quote IC50 reported for `Nc1nc2cc(-c3cccc(Oc4ccc(F)c(O)c4)n3)ccc2s1` please.
Resp: ≤ 5 µM

Req: Quote IC50 reported for `CNC(=O)c1cccc(-c2cccc(Oc3ccc(F)c(O)c3)n2)c1` please.
Resp: ≤ 5 µM

Req: Quote IC50 reported for `CC(=O)N1CCOc2cc(-c3cccc(Oc4ccc(F)c(O)c4)n3)ccc21` please.
Resp: ≤ 5 µM

Req: Quote IC50 reported for `COc1ccccc1-c1cccc(Oc2ccc(F)c(O)c2)n1` please.
Resp: 10 to 30 µM

Req: Quote IC50 reported for `Oc1cc(Oc2cccc(-c3cccc(Cl)c3F)n2)ccc1F` please.
Resp: ≤ 5 µM

Req: Quote IC50 reported for `Oc1cc(Oc2ccnc(-c3cccc(O)c3F)n2)ccc1F` please.
Resp: ≤ 5 µM

Req: Quote IC50 reported for `Oc1cccc(-c2cccc(Oc3ccc4c(c3)NCCO4)n2)c1F` please.
Resp: > 30 µM

Req: Quote IC50 reported for `Oc1cc(Oc2cccc(-c3ccc(F)c(O)c3)n2)ccc1F` please.
Resp: ≤ 5 µM

Req: Quote IC50 reported for `Oc1cccc(-c2cccc(Oc3ccc(F)c(OC(F)F)c3)n2)c1F` please.
Resp: > 30 µM

Req: Quote IC50 reported for `CNC(=O)c1cc(Oc2ccc(F)c(OC)c2)nc(-c2cccc(O)c2F)c1` please.
Resp: > 30 µM

Req: Quote IC50 reported for `Oc1cccc(-c2cccc(Oc3cccnc3)n2)c1F` please.
Resp: 5 to 10 µM

Req: Quote IC50 reported for `Oc1cc(Oc2cccc(-c3cccnc3)n2)ccc1F` please.
Resp: ≤ 5 µM

Req: Quote IC50 reported for `O=C(O)c1cccc(-c2cccc(Oc3ccc(F)c(O)c3)n2)c1` please.
Resp: > 30 µM
